List of Kd values.
- Assayed System: T1, murine IL-11 (mouse, UniProt P47873 22-199)
- T1 construct: bought from Invigate; also called mIL-11; mIL11
- T1 sequence: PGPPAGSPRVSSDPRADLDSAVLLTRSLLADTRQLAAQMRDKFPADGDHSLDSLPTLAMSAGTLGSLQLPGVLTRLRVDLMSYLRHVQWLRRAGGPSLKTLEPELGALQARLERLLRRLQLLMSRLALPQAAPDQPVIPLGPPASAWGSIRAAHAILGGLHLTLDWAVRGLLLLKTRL
- Test: SPR, antibody captured, IL-11 as analyte

Binder: TPP-26298 (antibody, V domains shown, constant regions not restated) VH: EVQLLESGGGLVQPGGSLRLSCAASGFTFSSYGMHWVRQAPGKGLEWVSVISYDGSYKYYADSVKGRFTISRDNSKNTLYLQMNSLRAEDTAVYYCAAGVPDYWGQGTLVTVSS VL: QSVLTQPPSASGTPGQRVTISCLGSSSNIGAGYDVHWYQQLPGTAPKLLIYSNNERPSGVPDRFSGSKSGTSASLAISGLRSEDEADYYCAAWDDSLNGPVFGGGTKLTVL
Kd / nM: 0.73
--
Binder: TPP-26328 (antibody, V domains shown, constant regions not restated) VH: EVQLLESGGGLVQPGGSLRLSCAASGFTFSSYGMHWVRQAPGKGLEWVSVISYDGSYKYYADSVKGRFTISRDNSKNTLYLQMNSLRAEDTAVYYCAATVPDYWGQGTLVTVSS VL: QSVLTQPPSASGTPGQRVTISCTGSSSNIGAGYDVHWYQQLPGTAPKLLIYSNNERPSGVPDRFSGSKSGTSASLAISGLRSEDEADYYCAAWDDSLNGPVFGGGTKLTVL
Kd / nM: 1.3
